Study the reported pIC50 values for Carbonic anhydrase 12 (Homo sapiens) given below; they originate from different publications.
Entry type: numeric. Quantity: pIC50, the -log10 of concentration in molar units.

// worked examples, pIC50 included
>>> df
                            chemical_string                           test_system  observed_value
0  Cc1ccc(-c2nn(-c3ccc(S(N)(=O)=O)cc3)cc2/C=N/Nc2ccc(S(N)(=O)=O)cc2)cc1  Carbonic anhydrase 12 (Homo sapiens)            6.84
1  O=[N+]([O-])c1ccc(S(=O)(=O)NC(P(=O)(O)O)P(=O)(O)O)cc1  Carbonic anhydrase 12 (Homo sapiens)            7.04
2  O=[N+]([O-])c1ccc(-c2ccc(S(=O)(=O)NC(P(=O)(O)O)P(=O)(O)O)cc2)cc1  Carbonic anhydrase 12 (Homo sapiens)            7.19
3  COc1cc(O)c(/C=C\C(=O)O)cc1[C@@H](O)CC(C)C  Carbonic anhydrase 12 (Homo sapiens)            4.31
4  O=P(O)(O)C(Nc1cccc(C(F)(F)F)c1)P(=O)(O)O  Carbonic anhydrase 12 (Homo sapiens)            7.04
5  O=P(O)(O)C(NS(=O)(=O)c1ccc(Br)cc1)P(=O)(O)O  Carbonic anhydrase 12 (Homo sapiens)            7.21

Now for the molecule whose pIC50 we want.
Value (pIC50, Carbonic anhydrase 12 (Homo sapiens)) for record COc1ccc(S(=O)(=O)Nc2ccccc2)cc1OC = 6.75
